Provenance of the data: paper PMC4336329

Biological target: human ether-à-go-go-related gene (hERG) potassium channel (human)
Assay: primary screen, population patch clamp on CHO cells stably expressing hERG; higher = less effect of the substance
Screen size: about 310,000 compounds; about 14,000 (4.5%) showed an effect of 50% or more. Effects have a minus sign here. This is one part of a sample in which strong results are shown more often than they occur.
Recorded hERG current change (%, negative = inhibition) at 10uM by entry
Give just the number in %; leave the unit off.

Answered examples (5):
[
  {
    "Compound Smiles": "O=C(c1ccc2nc3ccc(Cl)cc3c(=O)n2c1)N1CCC2(CC1)OCCO2",
    "Experimental Value": -40.3
  },
  {
    "Compound Smiles": "COc1ccc2oc(=O)cc(CN3CCOCC3)c2c1",
    "Experimental Value": 18.3
  },
  {
    "Compound Smiles": "Fc1ccc(-[n+]2nc(Nc3ccccc3)sc2-c2c3ccccc3cc3ccccc23)cc1.[Cl-]",
    "Experimental Value": 18.2
  },
  {
    "Compound Smiles": "CCc1cc2c(CN3CCN(Cc4ccccc4)CC3)cc(=O)oc2cc1O",
    "Experimental Value": -35.5
  },
  {
    "Compound Smiles": "COc1cc(OC)c(-c2sc(Nc3ccccc3)n[n+]2-c2ccc(F)cc2)cc1OC.[Cl-]",
    "Experimental Value": -0.831
  }
]

Would you kindly look at the next entry?
Would you mind telling me what hERG current change (%, negative = inhibition) at 10uM value was observed for O=c1cc(CN2CCN(Cc3ccccc3)CC2)c2cc(O)ccc2o1 ?
-68.2

----------
Biological target: human ether-à-go-go-related gene (hERG) potassium channel (human, UniProt Q12809)
Sequence (Q12809 whole entry, looked up): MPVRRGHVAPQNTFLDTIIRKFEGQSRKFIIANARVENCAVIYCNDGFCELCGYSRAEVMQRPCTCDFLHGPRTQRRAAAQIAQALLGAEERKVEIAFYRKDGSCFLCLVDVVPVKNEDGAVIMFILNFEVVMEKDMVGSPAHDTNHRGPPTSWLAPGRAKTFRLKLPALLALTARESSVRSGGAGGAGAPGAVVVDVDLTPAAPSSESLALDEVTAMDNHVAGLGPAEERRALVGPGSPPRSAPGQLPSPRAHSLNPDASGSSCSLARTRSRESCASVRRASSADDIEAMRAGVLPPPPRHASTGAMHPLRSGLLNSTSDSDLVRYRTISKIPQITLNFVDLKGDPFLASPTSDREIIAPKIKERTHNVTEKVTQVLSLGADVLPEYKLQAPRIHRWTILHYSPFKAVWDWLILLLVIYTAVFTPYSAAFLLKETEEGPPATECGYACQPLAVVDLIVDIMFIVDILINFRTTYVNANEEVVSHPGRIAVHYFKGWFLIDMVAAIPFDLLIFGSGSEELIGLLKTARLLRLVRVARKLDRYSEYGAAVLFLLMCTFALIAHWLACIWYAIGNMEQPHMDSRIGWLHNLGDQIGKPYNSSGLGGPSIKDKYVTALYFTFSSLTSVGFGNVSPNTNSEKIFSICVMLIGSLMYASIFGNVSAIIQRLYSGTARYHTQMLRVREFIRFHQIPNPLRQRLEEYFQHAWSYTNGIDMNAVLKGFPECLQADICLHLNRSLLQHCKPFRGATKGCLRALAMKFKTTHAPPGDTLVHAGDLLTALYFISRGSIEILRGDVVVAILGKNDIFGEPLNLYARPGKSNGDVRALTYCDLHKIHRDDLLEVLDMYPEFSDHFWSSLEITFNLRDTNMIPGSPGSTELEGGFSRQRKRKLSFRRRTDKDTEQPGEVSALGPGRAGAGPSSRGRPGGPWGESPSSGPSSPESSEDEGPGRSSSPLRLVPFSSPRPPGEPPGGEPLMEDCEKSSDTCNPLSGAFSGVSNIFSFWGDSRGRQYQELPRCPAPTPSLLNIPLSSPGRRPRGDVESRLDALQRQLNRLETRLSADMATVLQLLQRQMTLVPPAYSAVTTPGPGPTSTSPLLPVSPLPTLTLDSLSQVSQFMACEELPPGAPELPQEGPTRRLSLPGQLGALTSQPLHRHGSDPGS
Experiment: primary screen, population patch clamp on CHO cells stably expressing hERG; higher = less effect of the substance
Among all 310,000 compounds or so, about 14,000 (4.5%) showed an effect of 50% or more. Effects have a minus sign here. The full list was thinned out, with strong results kept by preference.
Classes based on hERG current change (%, negative = inhibition) at 10uM: low-valued: < -50%; mid-valued: ≥ -50% and < -10%; high-valued: ≥ -10%

Some solved entries appear below for comparison.
[
  {
    "Compound Smiles": "Brc1cccc(-c2nnc3sc(CN4CCCCC4)cn23)c1",
    "Cat": "mid-valued"
  },
  {
    "Compound Smiles": "O=C(COc1ccccc1)N1CCN(c2ncnc3c2cnn3-c2ccccc2)CC1",
    "Cat": "low-valued"
  },
  {
    "Compound Smiles": "Brc1cccc(-c2nnc3sc(CNCc4ccco4)cn23)c1",
    "Cat": "low-valued"
  },
  {
    "Compound Smiles": "O=c1n(-c2ccc(Br)cc2)cnn1-c1ncccc1[N+](=O)[O-]",
    "Cat": "mid-valued"
  },
  {
    "Compound Smiles": "CSc1ccc(/C=N/NC(=O)CN2CCN(Cc3ccccc3)CC2)cc1",
    "Cat": "low-valued"
  },
  {
    "Compound Smiles": "Nc1ccncc1",
    "Cat": "high-valued"
  },
  {
    "Compound Smiles": "O=C(c1ccccc1)N1CCN(c2ncnc3c2cnn3-c2ccccc2)CC1",
    "Cat": "mid-valued"
  }
]

# evaluate next
Sort CCCc1cc(-n2ccnc2C)n2c(nc3ccccc32)c1C#N into one of the categories.
high-valued

----------
Biological target: human ether-à-go-go-related gene (hERG) potassium channel (human, UniProt Q12809)
Assay: primary screen, population patch clamp on CHO cells stably expressing hERG; higher = less effect of the substance
Hit rate of the full screen: of about 310,000 compounds, about 14,000 (4.5%) showed an effect of 50% or more. The effect is printed as a negative number. Shown is part of a subset that was picked to be rich in strong results.
Reported hERG current change (%, negative = inhibition) at 10uM values are given for each entry in this list.
Kindly provide the numeric value in % only, without the unit symbol.

Known results for molecules:
[
  {
    "Molecule": "CC(C)N1CCC(N2CCN(CCCn3cccn3)CC2CCO)CC1 (stereo not drawn)",
    "Experimental Value": -28
  },
  {
    "Molecule": "CC(Oc1ccc2c(-c3ccccc3)cc(=O)oc2c1)C(=O)N[C@H](Cc1c[nH]c2ccccc12)C(=O)O (stereo partly drawn)",
    "Experimental Value": 7.48
  }
]

Turning to the following molecule.
Param readout = hERG current change (%, negative = inhibition) at 10uM; param system = human ether-à-go-go-related gene (hERG) potassium channel (human, UniProt Q12809); param query = OCCC1CN(CCCn2cccn2)CCN1Cc1ccccc1 (stereo not drawn) ; response: value;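 note: peak tail current of the secondary pulse compared with the same well before compound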
-8.62

----------
The entries below are paired with their reported hERG current change (%, negative = inhibition) at 10uM.
Molecular target: human ether-à-go-go-related gene (hERG) potassium channel (human, UniProt Q12809);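 note: peak tail current of the secondary pulse compared with the same well before compound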
Assay: primary screen, population patch clamp on CHO cells stably expressing hERG; higher = less effect of the substance
Out of some 310,000 compounds screened, about 14,000 (4.5%) showed an effect of 50% or more. Effects have a minus sign here. What follows is part of a selection rich in strong results, with near analogues and random picks from the rest.
All answers are understood in %, so give the number only.

Can you look up hERG current change (%, negative = inhibition) at 10uM on human ether-à-go-go-related gene (hERG) potassium channel (human, UniProt Q12809) for CCOc1cccc(CN2CCC(n3nccc3NC(=O)C3CC3)CC2)c1O ?
-64.2

What would you report for Cc1nc(-c2ccc(Cl)cc2)sc1C1(C)CC(c2ccc(C#N)cc2)=NO1 (stereo not shown) ?
-29.2

Another molecule to check: CC(C)Oc1ccc(CN2CCC(n3nccc3NC(=O)c3cccnc3)CC2)cc1
-70.4

Follow-up entry: O=C(c1ccc([N+](=O)[O-])cc1)N1CCN(C2=NS(=O)(=O)c3ccccc32)CC1
-46.2

----------
Molecular target: human ether-à-go-go-related gene (hERG) potassium channel (human, UniProt Q12809);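 note: peak tail current of the secondary pulse compared with the same well before compound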
Experiment: primary screen, population patch clamp on CHO cells stably expressing hERG; higher = less effect of the substance
In all, about 310,000 compounds went through this assay and about 14,000 (4.5%) showed an effect of 50% or more. Effects have a minus sign here. Many of the other results were omitted from the sample, so strong results are more common in it than they were.
Recorded Endpoint: hERG current change (%, negative = inhibition) at 10uM (%)
Provide the reading as a plain figure in %.

[
  {
    "Compound": "COc1cccc(N2CCN(C(=O)C3CCCN(S(=O)(=O)c4cnc[nH]4)C3)CC2)c1 (centres unmarked)",
    "Experimental Value": 17.4
  }
]

Query (compound): O=S(=O)(c1ccc(Br)s1)N1CCN(c2ncccn2)CC1 ; field requested: hERG current change (%, negative = inhibition) at 10uM
-3.42

For CCC(=O)c1ccc(N2CCCCC2)c(F)c1 then?
8.26

For COc1cccc(NC(=S)NNC(=O)c2ccccc2OC(F)F)c1 then?
12.3

----------
Target: human ether-à-go-go-related gene (hERG) potassium channel (human, UniProt Q12809);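 note: peak tail current of the secondary pulse compared with the same well before compound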
Assay: primary screen, population patch clamp on CHO cells stably expressing hERG; higher = less effect of the substance
Hit rate of the full screen: of about 310,000 compounds, about 14,000 (4.5%) showed an effect of 50% or more. The effect is printed as a negative number. The sample as a whole holds a higher share of strong results than the screen did.
Recorded Endpoint: hERG current change (%, negative = inhibition) at 10uM (%)
Kindly answer with a numeric value in %, unit omitted.

[
  {
    "Molecule": "Cc1c(Cl)cccc1NC(=S)N1CCN(c2ccc([N+](=O)[O-])cn2)CC1",
    "Experimental Value": 2.33
  },
  {
    "Molecule": "O=C(COC(=O)CNS(=O)(=O)c1ccc(F)c(F)c1F)NC1CCCC1",
    "Experimental Value": 4.16
  },
  {
    "Molecule": "COc1ccc2c(c1)nc(SCC(O)c1ccccc1)n2C (centres unmarked)",
    "Experimental Value": -60.2
  },
  {
    "Molecule": "COc1ccccc1/C=C(/C#N)C(=O)O",
    "Experimental Value": 18.5
  },
  {
    "Molecule": "O=C(O)CCn1c(-c2ccccc2)cc2c1CCCC2=O",
    "Experimental Value": 14.1
  },
  {
    "Molecule": "CCc1ccc(OCCCC(=O)NCc2ccco2)cc1",
    "Experimental Value": 1.95
  },
  {
    "Molecule": "CN(C)c1cccc(C(=O)NCc2ccc(Cl)cc2)c1",
    "Experimental Value": -8.25
  },
  {
    "Molecule": "COC(=O)CC1=C(C(=O)OC)C2(C(=O)N(C)c3ccccc32)C(C#N)=C(N)O1 (centres unmarked)",
    "Experimental Value": 14.7
  }
]

Give its hERG current change (%, negative = inhibition) at 10uM value. Item: Br.CCn1c(=N)n(CC(=O)c2ccc(OC)cc2)c2ccccc21
-18.6

Can you handle COc1cccc2cc(C(=O)NC(C)c3ccccc3)c(=O)oc12 (centres unmarked) next?
16.3

Next entry: CCn1nc(NS(=O)(=O)c2ccc([N+](=O)[O-])cc2)c2cc3ccccc3nc21
19.3
